Recorded values, source BindingDB's records for doi:10.1016/j.bmcl.2018.04.050.

protocol description: Binding affinity to thrombin cleavable N-terminal 6His tagged and 13C-IVLM labeled human KDM4A tandem TUDOR domain (897 to 1011 residues) expressed in Escherichia coli BL21(DE3)-T1R assessed as apparent Kd for H3(1-10)K4me3 peptide at 1 mM by ITC method (Rvb = 5.2 +/- 0.3 uM)

- compound: "CN(C)C[C@H]1C2CCC(c3ccccc3)(C2)[C@H]1O (stereo partly specified)"
  Kd / µM: 22.7

---

protocol description: Binding affinity to thrombin cleavable N-terminal 6His tagged and 13C-IVLM labeled human KDM4A tandem TUDOR domain (897 to 1011 residues) expressed in Escherichia coli BL21(DE3)-T1R assessed as apparent Kd for H3(1-10)K4me3 peptide at 0.5 mM by ITC method (Rvb = 5.2 +/- 0.3 uM)
pKd: −log10 of the molar value.

- compound: "CN(C)C[C@H]1C2CCC(c3ccccc3)(C2)[C@H]1O (stereo partly specified)"
  pKd: 4.81
